Reported self-aminoacylation values follow for various sequences
system: biotinyl-Phe-oxazolone; experiment: self-aminoacylation, catalytic enhancement (BFO) (fold over background); higher = more active; k-Seq, kA / k0A0; sequences stand for … in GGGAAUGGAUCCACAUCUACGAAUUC…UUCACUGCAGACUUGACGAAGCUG
This sample holds only a part of the variants without activity.

Asked: Using the record for AUUCAACCAGGUCAUCGGGUG [Fam2.2 aminoacylation ribozyme variant] , report its self-aminoacylation.
Given back: 58.9

Asked: Using the record for AUUCACCUAGAUCAUCGGUUG [Fam2.2 aminoacylation ribozyme variant] , report its self-aminoacylation.
Given back: 0.463

---

Reported self-aminoacylation values follow for various sequences
test system: biotinyl-Phe-oxazolone; experiment: self-aminoacylation, catalytic enhancement (BFO) (fold over background); higher = more active; k-Seq, kA / k0A0; sequences stand for … in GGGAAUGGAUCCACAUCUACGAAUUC…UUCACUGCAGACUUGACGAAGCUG
Variants at the floor of the assay were thinned out.

Asked: Using the record for CAACCUCAAACAAUCGGUCUG [Fam1A.1 aminoacylation ribozyme variant] , report its self-aminoacylation.
Given back: 11.5

Asked: Using the record for CUACACUUUAAGCAAUCGGUC [Fam1B.1 aminoacylation ribozyme variant] , report its self-aminoacylation.
Given back: 0.979

Asked: Using the record for GUUCACCUAGGUUAUCGGGUG [Fam2.2 aminoacylation ribozyme variant] , report its self-aminoacylation.
Given back: 34

Asked: Using the record for AUUCACCCAGGUCUUCGGGUG [Fam2.2 aminoacylation ribozyme variant] , report its self-aminoacylation.
Given back: 35

Asked: Using the record for AUUGUCCUAGGUCAUCGGGUG [Fam2.2 aminoacylation ribozyme variant] , report its self-aminoacylation.
Given back: 200

Asked: Using the record for AUUCACCUAGGUCAUCGUGUG [Fam2.2 aminoacylation ribozyme variant] , report its self-aminoacylation.
Given back: 2.56

Asked: Using the record for AUUACCCUGGUCACCGUGUGA [Fam2.1 aminoacylation ribozyme variant] , report its self-aminoacylation.
Given back: 21.1

Asked: Using the record for UUUACCCUGGUCAUCGCGUGA [Fam2.1 aminoacylation ribozyme variant] , report its self-aminoacylation.
Given back: 128

Asked: Using the record for AUUCCCCUAGGUCAUCGAGUG [Fam2.2 aminoacylation ribozyme variant] , report its self-aminoacylation.
Given back: 66.1

Asked: Using the record for AAGUUAGCUUAUAGUCGCAAG [Fam3.1 aminoacylation ribozyme variant] , report its self-aminoacylation.
Given back: 2.88

Asked: Using the record for AUUCACCUAGGUUGUCGGGUG [Fam2.2 aminoacylation ribozyme variant] , report its self-aminoacylation.
Given back: 27.3

Asked: Using the record for CUACUUCACACAAUCGAUCUG [Fam1A.1 aminoacylation ribozyme variant] , report its self-aminoacylation.
Given back: 0.726

Asked: Using the record for CAACACUUCAAGCAAUCGGUA [Fam1B.1 aminoacylation ribozyme variant] , report its self-aminoacylation.
Given back: 1.44

Asked: Using the record for CAGUUUCCUAAUAGUCGCAAG [Fam3.1 aminoacylation ribozyme variant] , report its self-aminoacylation.
Given back: 2.17

Asked: Using the record for AUUCACCUAGGUCAUGGGGUA [Fam2.2 aminoacylation ribozyme variant] , report its self-aminoacylation.
Given back: 1
